Just for reference, ChEMBL document CHEMBL1141563 is where these values come from.

# Method Notes: Tmax in Sprague-Dawley rat at 1 mg/kg, iv or 10 mg/kg, po
# Format: ADME, organism-based
# Test Conditions: in vivo
Observed Property: Tmax (h)
Form entry: value (h) — number only.

{"Compound": "NC(=O)C(c1ccccc1)(c1ccc(F)cc1)c1ccccc1F (configuration not stated)", "Unit Info": "h", "Assay Result": 2}

Turning now to a further compound:
For `NC(=O)C(c1ccccc1)(c1ccc(F)cc1)c1ccc(F)cc1` , what is its reported Tmax?
4

====

# Method Notes: Solubility by shake-flask method
# Assay type: physicochemical
Classify on solubility thermodynamic using category 1: < 3 µM; category 2: ≥ 3 µM and < 6 µM; category 3: ≥ 6 µM

{"Compound": "NC(=O)C(c1ccccc1)(c1cccc(F)c1)c1cccc(F)c1", "Answer Label": "category 1"}
{"Compound": "NC(=O)C(c1ccccc1)(c1ccc(F)cc1)c1ccccc1F (stereo not drawn)", "Answer Label": "category 2"}
{"Compound": "NC(=O)C(c1ccccc1)(c1ccccc1)c1ccc(F)cc1F", "Answer Label": "category 1"}
{"Compound": "NC(=O)C(c1ccccc1)(c1ccccc1)c1ccccc1F", "Answer Label": "category 3"}
{"Compound": "NC(=O)C(c1ccc(F)cc1)(c1ccc(F)cc1)c1ccccc1F", "Answer Label": "category 3"}

Which class is correct for the following compound? `NC(=O)C(c1ccccc1)(c1ccccc1)c1ccc(F)cc1`
category 1

Another compound to check: `NC(=O)C(c1cccc(F)c1)(c1cccc(F)c1)c1cccc(F)c1`
category 2

====

# Test Target: Intermediate conductance calcium-activated potassium channel protein 4 (Homo sapiens, UniProt O15554)
# Sequence (O15554 whole entry): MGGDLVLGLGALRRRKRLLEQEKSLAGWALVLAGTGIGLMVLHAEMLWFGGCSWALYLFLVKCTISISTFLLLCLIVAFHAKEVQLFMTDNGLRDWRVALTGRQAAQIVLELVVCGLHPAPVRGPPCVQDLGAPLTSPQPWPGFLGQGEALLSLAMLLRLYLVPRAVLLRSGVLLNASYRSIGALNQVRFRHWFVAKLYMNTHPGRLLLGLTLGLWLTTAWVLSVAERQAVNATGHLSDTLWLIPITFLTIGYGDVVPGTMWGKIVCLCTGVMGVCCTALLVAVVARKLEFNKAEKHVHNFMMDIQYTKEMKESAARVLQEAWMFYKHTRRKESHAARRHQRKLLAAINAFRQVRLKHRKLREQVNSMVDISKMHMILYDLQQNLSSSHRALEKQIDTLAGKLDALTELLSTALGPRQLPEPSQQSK
# Method Notes: Inhibition of Gardos channel in human RBC assessed as inhibition of ionomycin-stimulated [86Rb] efflux
Observed Property: IC50
Answer format: number, then unit.

{"Molecule": "NC(=O)C(c1ccccc1)(c1ccccc1F)c1ccccc1F", "Observed Property": "IC50", "Assay Result": "30 nM"}

Could you share which IC50 value was measured for `NC(=O)C(c1ccccc1)(c1ccccc1)c1ccc(F)c(F)c1` ?
14 nM

Then this compound: `CCNC(=O)C(c1ccccc1)(c1ccccc1)c1ccccc1`
1750 nM

Follow-up item: `NC(=O)C(c1ccc(F)cc1)(c1cccc(F)c1)c1cccc(F)c1`
15 nM

And the next one, `NC(=O)C(c1ccc(F)cc1)(c1ccc(F)cc1)c1ccccc1F` ?
10 nM

And `CN(C)C(=O)C(c1ccccc1)(c1ccccc1)c1ccccc1` ?
3150 nM

====

Measured solubility thermodynamic, listed per entry for reference.
# Method Notes: Solubility by shake-flask method
# Format: physicochemical
The response must be a number in µM with no trailing unit.

Before answering, review these 4 worked examples.
{"Compound": "NC(=O)C(c1ccc(F)cc1)(c1ccc(F)cc1)c1ccc(F)cc1", "Unit Info": "µM", "solubility thermodynamic": 2.6}
{"Compound": "NC(=O)C(c1ccc(F)cc1)(c1ccc(F)cc1)c1cccc(F)c1", "Unit Info": "µM", "solubility thermodynamic": 4.1}
{"Compound": "NC(=O)C(c1ccc(F)cc1)(c1ccccc1F)c1ccccc1F", "Unit Info": "µM", "solubility thermodynamic": 6.8}
{"Compound": "NC(=O)C(c1ccccc1)(c1ccc(F)cc1)c1ccc(F)cc1 [SENICAPOC]", "Unit Info": "µM", "solubility thermodynamic": 3.8}

Pending compound:
Entry `NC(=O)C(c1ccccc1)(c1ccccc1)c1ccc(F)c(F)c1` has what solubility thermodynamic?
4.3
